Experiment: Cytotoxic effect in uninfected MT-4 cultures
Type: cell-based
Settings: human, uninfected MT-4 cells; read-out: CC50, 50% cytotoxic concentration

molecule	CC50 at 6 days
C=CCc1c(Cc2ccccc2)nc(SC2CCCCC2)[nH]c1=S	> 100 µM
C=CCc1c(Cc2ccccc2)nc(SCC(=O)OC)[nH]c1=O	> 100 µM
C=CCc1c(Cc2ccccc2)nc(SCCCCCC)[nH]c1=O	35 µM
C=CCc1c(Cc2ccccc2)nc(SC)[nH]c1=O	> 100 µM
C=CCc1c(Cc2ccccc2)nc(SC2CCCC2)[nH]c1=O	> 100 µM
C=CCSc1nc(Cc2ccccc2)c(CC=C)c(=O)[nH]1	25 µM
C=CCc1c(Cc2ccccc2)nc(SCC(C)C)[nH]c1=O	> 100 µM
C=CCc1c(Cc2ccccc2)nc(SCCCO)[nH]c1=O [Compound 11c]	> 100 µM
CCOCn1c(Cc2ccccc2)c(C(C)C)c(=O)[nH]c1=O [MKC-442, reference compound]	141 µM
C=CCc1c(Cc2ccccc2)nc(SCSC)[nH]c1=O [Compound 11a]	> 100 µM
Cc1cn([C@H]2C[C@H](N=[N+]=[N-])[C@@H](CO)O2)c(=O)[nH]c1=O [AZT, azidothymidine, reference compound]	52 µM

* * *

Measured melting point, listed per entry.
valueType: melting point

compound	valueMeasured
C=CCc1c(Cc2ccccc2)nc(SCC(CC)CC)[nH]c1=O [Compound 2i]	141 to 143 °C
C=CCc1c(Cc2ccccc2)nc(SCCCCCC)[nH]c1=O [Compound 2d]	153 to 155 °C
C=CCc1c(Cc2ccccc2)nc(SCCCBr)[nH]c1=O [Compound 2c]	138 to 140 °C
C=CCc1c(Cc2ccccc2)nc(SCCCO)[nH]c1=O [Compound 11c]	123 to 125 °C
O=c1[nH]c([S+]([O-])C2CCCCC2)nc(Cc2ccccc2)c1CC1CO1 (stereo not drawn) [Compound 7]	190 to 192 °C
C=CCc1c(Cc2ccccc2)nc(SCC(OCC)OCC)[nH]c1=O [Compound 9]	156 to 158 °C
C=CCc1c(Cc2ccccc2)nc(SC)[nH]c1=O [Compound 2a]	214 to 216 °C
C=CCc1c(Cc2ccccc2)nc(SCOCC)[nH]c1=O [Compound 11b]	142 to 144 °C
C=CCc1c(Cc2ccccc2)nc(SC2CCOC2=O)[nH]c1=O (stereo not drawn) [Compound 2k]	153 to 155 °C
C=CCc1c(Cc2ccccc2)nc(SCCOCOC)[nH]c1=O [Compound 2f]	188 to 190 °C
C=CCc1c(Cc2ccccc2)nc(SCCO)[nH]c1=O [Compound 2b]	164 to 166 °C
C=CCSc1nc(Cc2ccccc2)c(CC=C)c(=O)[nH]1 [Compound 2e]	114 to 116 °C
C=CCc1c(Cc2ccccc2)nc(SC2CCCCC2)[nH]c1=O [Compound 6]	138 to 140 °C
C=CCc1c(Cc2ccccc2)nc(SCC(C)C)[nH]c1=O [Compound 2h]	134 to 136 °C
C=CCc1c(Cc2ccccc2)nc(SC2CCCCC2)[nH]c1=S [Compound 8]	143 to 145 °C

* * *

Test system: HIV-1
Assay: Inhibition of HIV-1 replication in MT-4 cells (HIV-1 antigen ELISA or MTT)
Format: cell-based, human immunodeficiency virus type 1
Details: MT-4 cells; ratio CC50/IC50

compound	Selectivity index (SI), CC50/IC50
CCOCn1c(Cc2ccccc2)c(C(C)C)c(=O)[nH]c1=O [MKC-442, reference compound]	28,000
C=CCc1c(Cc2ccccc2)nc(SCC(=O)OC)[nH]c1=O [Compound 3a]	>2
C=CCc1c(Cc2ccccc2)nc(SCC(C)C)[nH]c1=O [Compound 2h]	>100
C=CCc1c(Cc2ccccc2)nc(SCSC)[nH]c1=O [Compound 11a]	>31
Cc1cn([C@H]2C[C@H](N=[N+]=[N-])[C@@H](CO)O2)c(=O)[nH]c1=O [AZT, azidothymidine, reference compound]	1,300
C=CCc1c(Cc2ccccc2)nc(SCCCO)[nH]c1=O [Compound 11c]	>312
C=CCc1c(Cc2ccccc2)nc(SC)[nH]c1=O [Compound 2a]	>3
C=CCc1c(Cc2ccccc2)nc(SC2CCCCC2)[nH]c1=S [Compound 8]	>25

* * *

Measured melting point, listed per entry.
valueType: melting point

compound	valueType	valueMeasured
C=CCc1c(Cc2ccccc2)nc(SCC(=O)OC)[nH]c1=O	melting point	117 to 119 °C
C=CCc1c(Cc2ccccc2)n2c(nc1=O)SCC2OCC (centres unmarked)	melting point	162 to 164 °C
C=CCc1c(Cc2ccccc2)nc(SCC(=O)OCC)[nH]c1=O	melting point	118 to 120 °C
C=CCc1c(Cc2ccccc2)nc(SCCOCOCCBr)[nH]c1=O	melting point	192 to 194 °C
C=CCc1c(Cc2ccccc2)nc(SCSC)[nH]c1=O [Compound 11a]	melting point	218 to 220 °C
